Where do the numbers come from? From paper PMC12864922.

# Target desc: TDP-43 (Homo sapiens, UniProt Q13148 1-414)
# Sequence (Q13148 whole entry): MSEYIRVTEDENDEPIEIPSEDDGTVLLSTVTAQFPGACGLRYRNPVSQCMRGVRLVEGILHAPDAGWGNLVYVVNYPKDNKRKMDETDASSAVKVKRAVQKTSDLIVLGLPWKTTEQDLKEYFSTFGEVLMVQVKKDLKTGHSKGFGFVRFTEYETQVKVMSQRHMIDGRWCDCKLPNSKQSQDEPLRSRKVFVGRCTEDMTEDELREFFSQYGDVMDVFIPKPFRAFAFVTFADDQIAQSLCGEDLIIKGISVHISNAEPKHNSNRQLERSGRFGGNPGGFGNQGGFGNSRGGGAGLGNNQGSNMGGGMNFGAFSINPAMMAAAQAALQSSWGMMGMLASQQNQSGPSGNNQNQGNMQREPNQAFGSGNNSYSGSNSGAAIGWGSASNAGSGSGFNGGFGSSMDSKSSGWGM
# Test method notes: RNA Bind-n-Seq with designed 260-mer pool; 25 mM Tris-HCl, 150 mM KCl, 3 mM MgCl2, BSA (printed 500 mg/mL), 20 units/mL SUPERase IN; pH not stated; 500 nM RNA pool, 1 h, 4 C; TDP-43 5, 50, 500 nM; high values mean tight binding
# Experimental conditions: protein: recombinant; tags: SBP (GST cleaved off with PreScission; pGEX-GST-SBP)
The full ranking holds about 9,900 sequences; the median of “r (bound/input frequency ratio)” is about 0.7, and the highest 2% start at about 6.5. The list comes from a sample in which the highest values are over-represented; it also holds close analogues and randomly drawn sequences.
Measurement kind: binding signal

Input line: What value of binding signal has been reported for the following binder? ENSMUSG00000061578.1463|Ksr2|60:64 (ssRNA) RNA: GGGAGUUCUACAGUCCGACGAUCGCUUCGAUAUCCGCAUGCUAUAGGUGGGUAGAUAGGUAUAUGAAUGAAUGGAUGAAUGGAUGGGUGAAUGGAUGGAUAGCAUACUGAAUAAAUGGAUGGAUGGAUGGAUUGAUUUGUGAAUGAAUGGAUGAAUGGAUGGGUAGGUGGGUGGAUGCAUAGGCAAGUAGAUGAAUGAAUAUGUGGGUAGAAGGGUGAGUGGGUGGAUGAAUGGAUGGAUAGGUUGGUAGGUUAAUGUAUUCGUGGAUGGGUGAAUGGAUGGAUGGAUAGAUAGAUGGGAAGGCUCUUGCGGUCGCACUAGUGUGGAAUUCUCGGGUGUCAAGG
Output line: 4.6 R (bound/input frequency ratio)
